Recorded values, source patent US9073862B2.

systemUnderTest: KCNQ2/3 channels (Homo sapiens, UniProt O43525+O43526)
Construct: expressed in transfected cells; host or cells: CHO-K1
experimentNotes: Fluorescence assay using a voltage sensitive dye (fluorimetry)
Type: cell-based
appliedConditions: CHO-K1 cells expressing KCNQ2/3 channels; relative to retigabine = 100%; read-out: Fluorimetry % efficacy (retigabine = 100%)
Listed next: entries and their corresponding Emax.
Lab book: enter the figure in %, no units written.

Below, 6 molecules whose answers are already recorded.
- testSmiles: "COCCOc1nc2cc(C(F)(F)F)ccc2c(C)c1C(=O)NCc1ccc(F)cc1"
  systemUnderTest: "KCNQ2/3 channels (Homo sapiens, UniProt O43525+O43526)"
  Emax (%): 94
- testSmiles: "COc1nc2cc(F)c(F)cc2c(OC)c1C(=O)NCc1cccc(F)c1"
  systemUnderTest: "KCNQ2/3 channels (Homo sapiens, UniProt O43525+O43526)"
  Emax (%): 147
- testSmiles: "COc1nc2cc(C(F)(F)F)ccc2c(C)c1C(=O)NCCCC(C)C"
  systemUnderTest: "KCNQ2/3 channels (Homo sapiens, UniProt O43525+O43526)"
  Emax (%): 184
- testSmiles: "CCOc1nc2cc(C(F)(F)F)ccc2c(OC)c1C(=O)NCc1cccc(F)c1"
  systemUnderTest: "KCNQ2/3 channels (Homo sapiens, UniProt O43525+O43526)"
  Emax (%): 170
- testSmiles: "CCOc1nc2cc(C(F)(F)F)ccc2c(C)c1C(=O)NCCCC(C)(C)C"
  systemUnderTest: "KCNQ2/3 channels (Homo sapiens, UniProt O43525+O43526)"
  Emax (%): 214
- testSmiles: "CCOc1nc2cc(C(F)(F)F)ccc2c(C)c1C(=O)NCc1ccc(C)cc1"
  systemUnderTest: "KCNQ2/3 channels (Homo sapiens, UniProt O43525+O43526)"
  Emax (%): 117

Give reported Emax value for COc1nc2cc(F)c(F)cc2c(C)c1C(=O)NCc1cccc(F)c1
96

Give reported Emax value for COc1nc2cc(F)cc(F)c2c(C)c1C(=O)NCc1cccc(F)c1
43
